Provide the recorded pIC50 for the entries that follow.
# Assay System: human P2X4 (Homo sapiens)
# Measurement Protocol: Human P2X4 HEK Cell FLIPR Assay
# Assay Conditions: HEK293 cells, agonist Bz-ATP at EC80; individual values listed where some fall outside detection range
Entry type: numeric. Quantity: pIC50, the -log10 of concentration in molar units.

Problem: // fetch pIC50 given entry NS(=O)(=O)c1cc(NC(=O)Cc2cccc(F)c2F)ccc1-n1cc(Cl)cn1 [Example 87]
Solution: 6.47

Problem: // fetch pIC50 given entry NS(=O)(=O)c1cc(NC(=O)Cc2ccccc2Cl)ccc1-n1cc(CC(F)F)cn1 [Example 259]
Solution: 7.30

Problem: // fetch pIC50 given entry NS(=O)(=O)c1cc(NC(=O)C(F)(F)c2ccccc2Cl)ccc1-n1cc(Br)cn1 [Example 62]
Solution: 6.60

---

# Assay System: human P2X4 (Homo sapiens, UniProt Q99571)
# Measurement Protocol: Human P2X4 HEK Cell FLIPR Assay
# Type: cell-based
# Assay Conditions: HEK293, HEK293 cells, agonist Bz-ATP at EC80; percentage of maximal inhibition; read-out: Human P2X4 HEK Cells (FLIPR Assay) avg Efficacy [%]
Observed Property: Emax (%)
Give the quantity in %, number only.

Problem: // fetch Emax given entry COCCn1cc(-c2ccc(NC(=O)Cc3ccc(F)cc3Cl)cc2S(N)(=O)=O)cn1
Solution: 90

Problem: // fetch Emax given entry Cc1coc(-c2ccc(NC(=O)Cc3ccccc3Cl)cc2S(N)(=O)=O)n1
Solution: 92

Problem: // fetch Emax given entry NS(=O)(=O)c1cc(NC(=O)Cc2ccccc2F)ccc1-c1nnc(C(F)F)o1
Solution: 89

Problem: // fetch Emax given entry Cc1cnn(-c2ccc(NC(=O)Cc3ccccc3F)cc2S(N)(=O)=O)c1
Solution: 92

Problem: // fetch Emax given entry NS(=O)(=O)c1cc(NC(=O)Cc2cccnc2Cl)ccc1-n1cc(F)cn1
Solution: 89

---

# Assay System: human P2X4 (Homo sapiens, UniProt Q99571)
# Measurement Protocol: Human P2X4 HEK Cell FLIPR Assay
# Assay Conditions: HEK293 cells, agonist Bz-ATP at EC80; individual values listed where some fall outside detection range
Provide the recorded IC50 for the entries that follow.
Give the quantity in µM, number only.

Problem: // fetch IC50 given entry NS(=O)(=O)c1cc(NC(=O)Cc2c(Cl)cccc2C(F)(F)F)ccc1-n1cc(C(F)(F)F)cn1 [Example 134]
Solution: 0.147

Problem: // fetch IC50 given entry NS(=O)(=O)c1cc(NC(=O)Cc2ccccc2Cl)ccc1-c1cnc(C(F)(F)F)s1 [Example 483]
Solution: 0.071

Problem: // fetch IC50 given entry Cc1nc(-c2ccc(NC(=O)Cc3ccccc3Cl)cc2S(N)(=O)=O)cs1 [Example 420]
Solution: 0.069

---

# Assay System: human P2X4 (Homo sapiens, UniProt Q99571)
# Measurement Protocol: Human P2X4 HEK Cell FLIPR Assay
# Assay type: cell-based
# Assay Conditions: HEK293, HEK293 cells, agonist Bz-ATP at EC80; percentage of maximal inhibition; read-out: Human P2X4 HEK Cells (FLIPR Assay) avg Efficacy [%]
Provide the recorded Emax for the entries that follow.
Give the quantity in %, number only.

Problem: // fetch Emax given entry CC(C)c1ccccc1CC(=O)Nc1ccc(-n2cc(C(F)(F)F)cn2)c(S(N)(=O)=O)c1 [Example 137]
Solution: 89

Problem: // fetch Emax given entry N#Cc1cnn(-c2ccc(NC(=O)Cc3c(O)cccc3Cl)cc2S(N)(=O)=O)c1 [Example 557]
Solution: 89

Problem: // fetch Emax given entry NS(=O)(=O)c1cc(NC(=O)Cc2ccccc2Cl)ccc1-c1cnc(C(F)F)s1 [Example 429]
Solution: 91

Problem: // fetch Emax given entry CC(C)(O)c1cc(F)cc(-c2ccc(NC(=O)Cc3ccccc3F)cc2S(N)(=O)=O)c1 [Example 347]
Solution: 89

Problem: // fetch Emax given entry NS(=O)(=O)c1cc(NC(=O)Cc2cccnc2Cl)ccc1-n1cc(C(F)(F)F)cn1 [Example 126]
Solution: 92

Problem: // fetch Emax given entry NS(=O)(=O)c1cc(NC(=O)Cc2ccccc2Cl)ccc1-c1ccncc1 [Example 552]
Solution: 88

Problem: // fetch Emax given entry NS(=O)(=O)c1cc(NC(=O)Cc2ccc(C(F)(F)F)cc2)ccc1-c1ccc(Cl)nc1 [Example 462]
Solution: 89

---

Provide the recorded Emax for the entries that follow.
# Assay System: human P2X4 (Homo sapiens, UniProt Q99571)
# Sequence (Q99571 1-388): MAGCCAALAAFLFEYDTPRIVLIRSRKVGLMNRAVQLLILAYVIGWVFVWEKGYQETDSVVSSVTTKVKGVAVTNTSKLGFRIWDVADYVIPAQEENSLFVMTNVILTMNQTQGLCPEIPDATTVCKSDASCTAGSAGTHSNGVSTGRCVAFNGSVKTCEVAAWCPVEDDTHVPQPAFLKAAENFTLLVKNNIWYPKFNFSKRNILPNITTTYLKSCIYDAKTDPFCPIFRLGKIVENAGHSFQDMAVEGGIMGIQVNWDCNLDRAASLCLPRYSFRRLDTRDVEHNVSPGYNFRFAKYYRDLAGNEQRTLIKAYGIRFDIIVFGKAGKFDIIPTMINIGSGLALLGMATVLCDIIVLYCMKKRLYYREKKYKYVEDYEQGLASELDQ
# Measurement Protocol: Human P2X4 HEK Cell FLIPR Assay
# Type: cell-based
# Assay Conditions: HEK293, HEK293 cells, agonist Bz-ATP at EC80; percentage of maximal inhibition; read-out: Human P2X4 HEK Cells (FLIPR Assay) avg Efficacy [%]
Give the quantity in %, number only.

Problem: // fetch Emax given entry NS(=O)(=O)c1cc(NC(=O)Cc2ccccc2Br)ccc1-n1cc(C(F)(F)F)cn1
Solution: 66

Problem: // fetch Emax given entry NS(=O)(=O)c1cc(NC(=O)Cc2ccc(Cl)cc2Cl)ccc1-n1cc(Cl)cn1
Solution: 78

Problem: // fetch Emax given entry NS(=O)(=O)c1cc(NC(=O)Cc2ccccc2Cl)ccc1-c1cncc(C(F)(F)F)c1
Solution: 66

Problem: // fetch Emax given entry NS(=O)(=O)c1cc(NC(=O)Cc2cc(F)ccc2Cl)ccc1-n1cc(F)cn1
Solution: 75

Problem: // fetch Emax given entry NS(=O)(=O)c1cc(NC(=O)Cc2ccccc2OC(F)F)ccc1-n1cc(Br)cn1
Solution: 80

Problem: // fetch Emax given entry NS(=O)(=O)c1cc(NC(=O)Cc2ccccc2F)ccc1-c1nnc(C2CC2)o1
Solution: 98

Problem: // fetch Emax given entry N#Cc1cnn(-c2ccc(NC(=O)Cc3ccccc3OC(F)(F)F)cc2S(N)(=O)=O)c1
Solution: 86

Problem: // fetch Emax given entry Cc1nn(-c2ccc(NC(=O)Cc3ccccc3Cl)cc2S(N)(=O)=O)c(C)c1Cl
Solution: 98

Problem: // fetch Emax given entry NS(=O)(=O)c1cc(NC(=O)Cc2ccccc2Cl)ccc1-c1cnn(C(F)F)c1C(F)(F)F
Solution: 92

Problem: // fetch Emax given entry CC1(Cn2cc(-c3ccc(NC(=O)Cc4ccccc4Cl)cc3S(N)(=O)=O)cn2)COC1
Solution: 96

Problem: // fetch Emax given entry CCc1ncn(-c2ccc(NC(=O)Cc3ccccc3Cl)cc2S(N)(=O)=O)n1
Solution: 90

Problem: // fetch Emax given entry CC(C)Oc1ncc(-c2ccc(NC(=O)Cc3ccccc3Cl)cc2S(N)(=O)=O)cn1
Solution: 104

Problem: // fetch Emax given entry CC(=O)c1cnn(-c2ccc(NC(=O)Cc3ccccc3Cl)cc2S(N)(=O)=O)c1
Solution: 89

Problem: // fetch Emax given entry N#Cc1cnn(-c2ccc(NC(=O)Cc3c(Cl)cccc3C(F)(F)F)cc2S(N)(=O)=O)c1
Solution: 95

Problem: // fetch Emax given entry N#Cc1cnn(-c2ccc(NC(=O)Cc3cc(F)ccc3Cl)cc2S(N)(=O)=O)c1
Solution: 86

Problem: // fetch Emax given entry Cc1cc(O)nn1-c1ccc(NC(=O)Cc2ccccc2Cl)cc1S(N)(=O)=O
Solution: 75

Problem: // fetch Emax given entry NS(=O)(=O)c1cc(NC(=O)Cc2ccccc2Cl)ccc1-n1cc(C(F)(F)F)nn1
Solution: 86

Problem: // fetch Emax given entry NS(=O)(=O)c1cc(NC(=O)Cc2ccccc2Cl)ccc1-n1cnc2cnccc21
Solution: 74

Problem: // fetch Emax given entry Cc1cc(-c2ccc(NC(=O)Cc3ccccc3Cl)cc2S(N)(=O)=O)cnn1
Solution: 75

Problem: // fetch Emax given entry Cn1cc(-c2ccc(NC(=O)Cc3ccccc3Cl)cc2S(N)(=O)=O)cn1
Solution: 93

Problem: // fetch Emax given entry NS(=O)(=O)c1cc(NC(=O)Cc2ccccc2OC(F)F)ccc1-n1cc(Cl)cn1
Solution: 94

Problem: // fetch Emax given entry NS(=O)(=O)c1cc(NC(=O)Cc2ccccc2Br)ccc1-n1cc(F)cn1
Solution: 83

Problem: // fetch Emax given entry NS(=O)(=O)c1cc(NC(=O)Cc2ccccc2Cl)ccc1-c1nc(N2CCOCC2)cs1
Solution: 85

Problem: // fetch Emax given entry NS(=O)(=O)c1cc(NC(=O)Cc2ccc(Cl)cc2Cl)ccc1-c1ccc(Cl)nc1
Solution: 92

Problem: // fetch Emax given entry CC(C)(C)c1nn(-c2ccc(NC(=O)Cc3ccccc3Cl)cc2S(N)(=O)=O)cc1C#N
Solution: 103

Problem: // fetch Emax given entry Cc1cn(-c2ccc(NC(=O)Cc3ccccc3Cl)cc2S(N)(=O)=O)nc1C
Solution: 97

Problem: // fetch Emax given entry NS(=O)(=O)c1cc(NC(=O)Cc2ccc(O)cc2)ccc1-n1cc(F)cn1
Solution: 80

Problem: // fetch Emax given entry NS(=O)(=O)c1cc(NC(=O)Cc2ccccc2Br)ccc1-c1ccc(Cl)nc1
Solution: 93
